experiment: optical density shifts of acrAB sulA E. coli – strain DRC41, OD650, 48 h, E. coli filamentation inducer project, primary screen (AID 1152); conditions: higher = more signal, called active from +8 up or from −8 down;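 also: E. coli MC1000 strain DRC41 lacking acrAB efflux pump and sulA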
Label false if z-score falls below -0.3; label true in every other case.

- CCCC=C(CCC)[C@@H](NC(=O)c1ccc(C(F)(F)F)cc1)c1ccc(C(F)(F)F)cc1: false
- O=C1C=C(c2ccccc2)C(=O)C2=C1CC([C@H]1Oc3ccccc3S(=O)(=O)N3CCC[C@@H]13)=CC2: true
- C=C(C)[C@@H]1CC=C(C(O)C2C=CC3C(=O)N(c4ccccc4)C(=O)C3N2Nc2ccc([N+](=O)[O-])cc2)CC1 (stereo not given in full): false
- Cc1ccccc1C(O)C1C=CC2C(=O)N(c3ccccc3)C(=O)C2N1Nc1ccccc1 (stereo not given): true
- CC(=O)OCC1C2CC[C@H]3C(OCc4ccc(F)cc4C(F)(F)F)OC[C@]4(C)[C@H]3C2=C(CN4C(=O)OC(C)(C)C)[C@H](C)C1COC(C)=O (stereo not given in full): false
- COCCOC(=O)N1C(=O)[C@@]2(c3cc(C#CCC(C(=O)OC)C(=O)OC)ccc31)[C@H](C(=O)Nc1nc3ccccc3s1)[C@H]1C(=O)O[C@H](c3ccccc3)[C@H](c3ccccc3)N1[C@@H]2c1ccc(OCCO)cc1: true
- CCOC(=O)C1=CC[C@@H](c2ccc(OC)cc2)N(S(=O)(=O)c2ccc(C)cc2)[C@H]1c1ccc(C)cc1: false
- CCCCC(O)C1C=CC2C(=O)N(c3ccccc3)C(=O)C2N1Nc1ccc(C#N)cc1 (stereo not given): false
- COc1ccc([Si](C)(C)[C@@H]2[C@@H](CC(=O)N3Cc4ccccc4C[C@H]3CO)O[C@]3(C(=O)N(Cc4cccc(N5CCOC5=O)c4)c4ccccc43)[C@H]2C)cc1: true
- COc1ccc(C(O)C2C=CC3C(=O)N(c4ccccc4)C(=O)C3N2Nc2ccc([N+](=O)[O-])cc2)c2ccccc12 (stereo not given): false
- COc1ccc(C(O)C2C=CC3C(=O)N(c4ccccc4)C(=O)C3N2Nc2ccc(C#N)cc2)cc1OCc1ccccc1 (stereo not given): false
- C=CCNC(=O)[C@@H]1[C@H]2C(=O)O[C@H](c3ccccc3)[C@H](c3ccccc3)N2[C@H](c2ccc(OCCO)cc2)[C@@]12C(=O)Nc1ccc(C#CC3(O)CCCCCC3)cc12: true
- COC(=O)C1=CC(CCCO)=CC(c2cccs2)N(Cc2cc3c(cc2Br)OCO3)C=C1C(=O)OC (stereo not given): true
- NCCCCCCNC(=O)[C@@H]1C[C@@H]2C(=O)N3CCC[C@H]3C(=O)N2[C@@H]1c1cccc(OCCO)c1: true
- C=C(CCCC)C(=O)CC[C@@H](OC(=O)c1ccccc1-c1ccccc1C(=O)O)c1ccccc1OCCO: true
